Assay read-out IC50; system under study: UniProt O60341.
observationType: IC50 (nM)

# molecule, systemTested, sign, recordedNumber
records = [
    ("C/C(=N\\NC(=O)c1cccc(S(=O)(=O)N2CCN(C)CC2)c1)c1cc(Cl)ccc1O", "UniProt O60341", "=", 127),
    ("NC1CC1c1ccc(NC(=O)c2ccc(O)c3ncccc23)cc1 (configuration not stated)", "UniProt O60341", "<", 1000),
]

* * *

target: Lysine-specific histone demethylase 1A (Homo sapiens, UniProt O60341); test: Inhibition of recombinant LSD1 (unknown origin) incubated for 1 hr by fluorescence based analysis
pIC50: −log10 of the molar value.

# smilesStr, pIC50
data = [
    ("COc1cc2c(c(O)c1OC)c(=O)c1ccccc1n2C", 6.40),
]

These measurements were taken from ChEMBL document CHEMBL5338737.
